Target: von Hippel-Lindau disease tumor suppressor/Histone-lysine N-methyltransferase, H3 lysine-79 specific (Homo sapiens, UniProt Q8TEK3+P40337)
Sequence (P40337 whole entry, looked up): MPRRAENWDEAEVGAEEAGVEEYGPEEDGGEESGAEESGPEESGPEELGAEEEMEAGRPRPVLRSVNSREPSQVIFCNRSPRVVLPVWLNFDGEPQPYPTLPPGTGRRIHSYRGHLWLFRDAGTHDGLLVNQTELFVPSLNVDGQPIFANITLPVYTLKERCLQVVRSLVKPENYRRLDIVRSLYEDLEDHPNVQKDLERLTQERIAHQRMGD
Sequence (Q8TEK3 whole entry, looked up): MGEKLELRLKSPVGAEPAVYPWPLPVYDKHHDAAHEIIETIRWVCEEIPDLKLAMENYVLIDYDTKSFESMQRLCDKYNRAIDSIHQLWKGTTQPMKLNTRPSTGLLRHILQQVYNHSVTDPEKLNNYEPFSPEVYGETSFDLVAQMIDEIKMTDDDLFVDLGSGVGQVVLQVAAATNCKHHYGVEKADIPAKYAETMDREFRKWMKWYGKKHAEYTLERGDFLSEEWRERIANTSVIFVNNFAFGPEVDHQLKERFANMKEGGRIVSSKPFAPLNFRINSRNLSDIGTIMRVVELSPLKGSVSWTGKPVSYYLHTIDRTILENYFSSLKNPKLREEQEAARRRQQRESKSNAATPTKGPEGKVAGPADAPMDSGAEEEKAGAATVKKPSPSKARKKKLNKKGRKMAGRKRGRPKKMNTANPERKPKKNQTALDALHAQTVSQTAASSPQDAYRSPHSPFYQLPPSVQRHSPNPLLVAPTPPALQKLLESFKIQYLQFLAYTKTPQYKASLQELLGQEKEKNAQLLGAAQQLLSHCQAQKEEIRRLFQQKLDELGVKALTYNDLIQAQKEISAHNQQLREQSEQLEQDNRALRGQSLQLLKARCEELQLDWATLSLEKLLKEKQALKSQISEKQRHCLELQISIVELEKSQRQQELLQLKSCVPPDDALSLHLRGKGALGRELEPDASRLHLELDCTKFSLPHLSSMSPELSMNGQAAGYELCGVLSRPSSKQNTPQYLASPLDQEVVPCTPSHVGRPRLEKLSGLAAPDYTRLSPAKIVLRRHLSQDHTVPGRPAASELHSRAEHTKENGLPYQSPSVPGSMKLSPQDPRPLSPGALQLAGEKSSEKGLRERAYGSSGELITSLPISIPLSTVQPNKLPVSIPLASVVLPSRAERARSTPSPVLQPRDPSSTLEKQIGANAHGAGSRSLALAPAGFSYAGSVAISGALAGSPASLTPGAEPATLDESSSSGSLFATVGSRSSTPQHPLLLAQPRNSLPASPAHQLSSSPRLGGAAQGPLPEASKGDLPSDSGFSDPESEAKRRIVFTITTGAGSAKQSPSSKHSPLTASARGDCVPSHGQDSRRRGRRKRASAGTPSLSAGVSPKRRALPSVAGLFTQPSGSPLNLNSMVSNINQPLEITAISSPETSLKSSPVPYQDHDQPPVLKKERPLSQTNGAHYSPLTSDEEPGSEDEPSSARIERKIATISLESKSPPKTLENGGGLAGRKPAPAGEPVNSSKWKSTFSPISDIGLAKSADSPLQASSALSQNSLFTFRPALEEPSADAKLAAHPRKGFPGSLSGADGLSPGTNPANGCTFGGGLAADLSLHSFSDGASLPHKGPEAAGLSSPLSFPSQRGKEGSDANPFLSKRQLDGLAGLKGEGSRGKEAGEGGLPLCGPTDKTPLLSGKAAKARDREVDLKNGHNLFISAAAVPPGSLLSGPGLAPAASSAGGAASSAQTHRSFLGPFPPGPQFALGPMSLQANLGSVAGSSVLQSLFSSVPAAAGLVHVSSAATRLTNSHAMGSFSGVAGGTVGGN
Assay: PROTAC activity at VHL/DOTIL in mixed-lineage leukemia rearranged (MLL-r) human THP-1 cells assessed as induction of DOT1L degradation by measuring fold change in DOTIL protein level at 3 uM incubated for 24 hrs by western blot analysis relative to control
Format: cell-based
assay readout: fold change (FC)

The examples below pair each entry with its known result.
Cc1ncsc1-c1ccc(CNC(=O)[C@@H]2C[C@@H](O)CN2C(=O)[C@@H](NC(=O)CCCCCNC(=O)COc2nc(N)nc(Nc3cc(S(N)(=O)=O)ccc3N[C@@H](c3cccc4c3OC(F)(F)O4)c3ncccc3Cl)n2)C(C)(C)C)cc1	1.11
Cc1ncsc1-c1ccc([C@H](CC(=O)NCCCNC(=O)COc2nc(N)nc(Nc3cc(S(N)(=O)=O)ccc3N[C@@H](c3cccc4c3OC(F)(F)O4)c3ncccc3Cl)n2)NC(=O)[C@@H]2C[C@@H](O)CN2C(=O)[C@@H](NC(=O)C2(F)CC2)C(C)(C)C)cc1	0.28

a = Cc1ncsc1-c1ccc([C@H](CC(=O)NCCCCCNC(=O)COc2nc(N)nc(Nc3cc(S(N)(=O)=O)ccc3N[C@@H](c3cccc4c3OC(F)(F)O4)c3ncccc3Cl)n2)NC(=O)[C@@H]2C[C@@H](O)CN2C(=O)[C@@H](NC(=O)C2(F)CC2)C(C)(C)C)cc1
b = Cc1ncsc1-c1ccc([C@H](CC(=O)NCCCCCCNC(=O)COc2nc(N)nc(Nc3cc(S(N)(=O)=O)ccc3N[C@@H](c3cccc4c3OC(F)(F)O4)c3ncccc3Cl)n2)NC(=O)[C@@H]2C[C@@H](O)CN2C(=O)[C@@H](NC(=O)C2(F)CC2)C(C)(C)C)cc1
QUERY: // compare measured fold change (FC), left a , right b , return larger # reply format: chosen label
RESULT: a

###

Target: von Hippel-Lindau disease tumor suppressor/Histone-lysine N-methyltransferase, H3 lysine-79 specific (Homo sapiens, UniProt Q8TEK3+P40337)
Experiment: PROTAC activity at VHL/DOTIL in mixed-lineage leukemia rearranged (MLL-r) human THP-1 cells assessed as induction of DOT1L degradation by measuring fold change in DOTIL protein level at 3 uM incubated for 24 hrs by western blot analysis relative to control
Format: cell-based
assay readout: fold change (FC)

The examples below pair each entry with its known result.
CC(=O)Nc1nc(Nc2cc(S(=O)(=O)NC(C)=O)ccc2N(C(C)=O)[C@@H](c2cccc3c2OC(F)(F)O3)c2ncccc2Cl)nc(OCC(=O)NCCCCCCNC(=O)C[C@H](NC(=O)C2CC(O)CN2C(=O)[C@@H](NC(=O)C2(F)CC2)C(C)(C)C)c2ccc(-c3scnc3C)cc2)n1 (single isomer, unassigned)	1.11
Cc1ncsc1-c1ccc(CNC(=O)[C@@H]2C[C@@H](O)CN2C(=O)[C@@H](NC(=O)CCCNC(=O)COc2nc(N)nc(Nc3cc(S(N)(=O)=O)ccc3N[C@@H](c3cccc4c3OC(F)(F)O4)c3ncccc3Cl)n2)C(C)(C)C)cc1	1.2

1 = Cc1ncsc1-c1ccc([C@H](CC(=O)NCCCCNC(=O)COc2nc(N)nc(Nc3cc(S(N)(=O)=O)ccc3N[C@@H](c3cccc4c3OC(F)(F)O4)c3ncccc3Cl)n2)NC(=O)[C@@H]2C[C@@H](O)CN2C(=O)[C@@H](NC(=O)C2(F)CC2)C(C)(C)C)cc1
2 = CC(C)N(C[C@H]1O[C@@H](n2cnc3c(N)ncnc32)[C@H](O)[C@@H]1O)[C@H]1C[C@@H](CCc2nc3cc(C(C)(C)C)ccc3[nH]2)C1
QUERY: Record comparison, field fold change (FC): mark the lower of 1 and 2 . # reply format: chosen label
RESULT: 1
(1: 0.6, 2: 1.03)

1 = COc1nc(N)nc(Nc2cc(S(N)(=O)=O)ccc2N[C@@H](c2cccc3c2OC(F)(F)O3)c2ncccc2Cl)n1
2 = Cc1ncsc1-c1ccc([C@H](CC(=O)NCCNC(=O)COc2nc(N)nc(Nc3cc(S(N)(=O)=O)ccc3N[C@@H](c3cccc4c3OC(F)(F)O4)c3ncccc3Cl)n2)NC(=O)[C@@H]2C[C@@H](O)CN2C(=O)[C@@H](NC(=O)C2(F)CC2)C(C)(C)C)cc1
3 = Cc1ncsc1-c1ccc(CNC(=O)[C@@H]2C[C@@H](O)CN2C(=O)[C@@H](NC(=O)CCCCCCCNC(=O)COc2nc(N)nc(Nc3cc(S(N)(=O)=O)ccc3N[C@@H](c3cccc4c3OC(F)(F)O4)c3ncccc3Cl)n2)C(C)(C)C)cc1
QUERY: Output the entries ranked by fold change (FC) from maximum down to minimum. Put the labels in the requested order and write them down.
RESULT: 1, 3, 2
(1: 1.57, 3: 0.83, 2: 0.55)

a = Cc1ncsc1-c1ccc(CNC(=O)[C@@H]2C[C@@H](O)CN2C(=O)[C@@H](NC(=O)CCCCCCNC(=O)COc2nc(N)nc(Nc3cc(S(N)(=O)=O)ccc3N[C@@H](c3cccc4c3OC(F)(F)O4)c3ncccc3Cl)n2)C(C)(C)C)cc1
b = Cc1ncsc1-c1ccc([C@H](CC(=O)NCCCCCCCCNC(=O)COc2nc(N)nc(Nc3cc(S(N)(=O)=O)ccc3N[C@@H](c3cccc4c3OC(F)(F)O4)c3ncccc3Cl)n2)NC(=O)[C@@H]2C[C@@H](O)CN2C(=O)[C@@H](NC(=O)C2(F)CC2)C(C)(C)C)cc1
QUERY: // compare measured fold change (FC), left a , right b , return larger # reply format: chosen label
RESULT: a
(a: 1.17, b: 0.56)

From: ChEMBL document CHEMBL6182889
